Where do the numbers come from? From the array DNA melting data of Ke et al. (doi:10.1101/2024.01.08.574731).

Readings of Tm for the listed sequences
Assay: melting temperature; fluorescence melt of hairpins on a sequencing array, two-state fit, raised by 9.35 °C to match UV melts
Conditions: sodium 0.088 M
Give the quantity in °C, number only.

Some sequences with known Tm results, for comparison:
Residues | Endpoint | Measured number
GATCATGGTATGATC ((((((...)))))) | Tm | 48.9
GATCAGCCTCCTGATC ((((((....)))))) | Tm | 49.1
GGTCTGGGAAACTAGACC (((((.(....).))))) | Tm | 50.6

Query: Identify Tm associated with the sequence GCCCCCGAAAGGGCAGGC ((((((....)))..)))
Response: 50.4

---

Assay: folding enthalpy; higher = less favourable; fluorescence melt of hairpins on a sequencing array, two-state fit
Details: sodium 0.088 M
Endpoint: folding enthalpy (kcal/mol)
// units = kcal/mol; emit number, no label

Residues | folding enthalpy [kcal/mol]
GAAAGAGGAAACTCTTTC (((((((....))))))) | -37.8
CGATCTCGGAAACGATCG (((..(((....)))))) | -20.3
GTTCATCGAAAGATTAAC (((.(((....))).))) | -34.2
GTGTGCGAAAGCATACAC ((((((....)))..))) | -18.2

Query: Tell me measured folding enthalpy for GCCAATCGAAAGATAGGC (((.(((....))).))) please.
Response: -35.6

---

Assay: folding enthalpy; higher = less favourable; fluorescence melt of hairpins on a sequencing array, two-state fit
Conditions: sodium 0.088 M
Hi, to clarify the labels: 1 (yes) covers folding enthalpy from -20 kcal/mol upward, 0 (no) covers anything below -20 kcal/mol.

Residues | Class
CGCGGAATTATCCGCG ((((((....)))))) | 0 (no)
GCCCAGCGAAAGCCAGGC (((..((....))..))) | 0 (no)
GTTAGGCGAAAGCCAAC (((.(((....)))))) | 1 (yes)
GGTTGAGGAAACCCAACC (((((.(....).))))) | 0 (no)
GTCAAGTCGAAAGACGAC (((..(((....)))))) | 1 (yes)

Query: Hello, I need to know if GTGATCCCGAAAGGGCAC (((..(((....)))))) has measured folding enthalpy not below -20 kcal/mol. Thanks!
Response: 1 (yes)

---

Reported values of folding enthalpy for individual entries
Assay: folding enthalpy; higher = less favourable; fluorescence melt of hairpins on a sequencing array, two-state fit
Settings: sodium 0.088 M
Kindly answer with a numeric value in kcal/mol, unit omitted.

// below: answered sequences
Residues | Measured number
GATCCGAGACGGATC ((((((...)))))) | -39.9
GCCGAGGGAAACCCCGGC ((((.((....)).)))) | -40.2
GTCAATCCGAAAGGAGAC (((..(((....)))))) | -20.3

Here is another sequence to look at.
Query: Note down folding enthalpy recorded for GCGTCGGGACGC ((((....))))
Response: -20.2

---

Each entry below carries its reported folding enthalpy.
Assay: folding enthalpy; higher = less favourable; fluorescence melt of hairpins on a sequencing array, two-state fit
Details: sodium 0.088 M
The answer should read as a number with its unit following.

Residues | folding enthalpy
GACCTGGGAAACCAAGTC (((.(((....))).))) | -29.7 kcal/mol

Query: Fill in reported folding enthalpy for this entry: GGCTAGAAATAGCC (((((....)))))
Response: -24.6 kcal/mol

Query: Supply folding enthalpy value. Item: GGAGAACGAAAGTTTTCC (((.(((....))).)))
Response: -29.2 kcal/mol

Query: Identify folding enthalpy associated with the sequence GATCACGCGTGTGATC ((((((....))))))
Response: -38.7 kcal/mol

Query: Input GCTCTGCGAAAGCATGGC ((..(((....)))..)) , output reported folding enthalpy.
Response: -19.6 kcal/mol

Query: Specify reported folding enthalpy for the sequence shown: GATGTAGGAAACTACACC (.(((((....))))).)
Response: -17.8 kcal/mol

Query: Please list folding enthalpy recorded for the sequence GGCTGATCGAAAGATGCC (((..(((....))))))
Response: -22.6 kcal/mol

Query: Please give measured folding enthalpy of the following entry: GATCCGAGGTCGGATC ((((((....))))))
Response: -38.8 kcal/mol

Query: Recall and state the measured folding enthalpy for GGTAGGGGAAACCCTGCC ((.((((....)))).)) .
Response: -39.5 kcal/mol

Query: Annotate the sequence GGTTACGGAAACGTGATC (.(.(((....))).).) with its measured folding enthalpy.
Response: -16.3 kcal/mol

Query: Dear colleague, please send me the reported folding enthalpy for GTAGGCGAAAGCCATTAC ((((((....)))..))) when you can.
Response: -7.44 kcal/mol
